Each item that follows carries a reported Vd.
experiment: Volume of distribution at steady state in Sprague-Dawley rat at 2 mg/kg, iv; format: ADME, organism-based; parameters: dose 2 mg/kg, route intravenous; conditions: in vivo, read-out: Vdss
MEASURE: Vd (L/kg)

CCn1c(=O)cc(Nc2cc(C(=O)NC3CC3)ccc2Cl)c2cnn(-c3ccc(F)cc3)c21 : 1.8
Cn1c(=O)cc(Nc2cc(C(=O)NC3CC3)ccc2Cl)c2cnn(-c3ccc(F)cc3)c21 : 0.97
CONC(=O)c1ccc(C)c(Nc2cc(=O)n(C)c3c2cnn3-c2ccc(F)cc2F)c1 : 1.7
Cn1c(=O)cc(Nc2cc(C(=O)NC3CC3)ccc2Cl)c2cnn(-c3c(F)cccc3F)c21 : 1.9
Cn1c(=O)cc(Nc2cc(C(=O)NC3CC3)ccc2Cl)c2cnn(-c3ccc(F)cc3F)c21 : 1.2

---

experiment: Volume of distribution at steady state in Sprague-Dawley rat at 2 mg/kg, iv; assay type: ADME, organism-based; design: dose 2 mg/kg, route intravenous; settings: in vivo, read-out: Vdss
MEASURE: Vd (L/kg)

CCn1c(=O)cc(Oc2cc(C(=O)NC3CC3)ccc2C)c2cnn(-c3ccc(F)cc3)c21 : 1.1
Cn1c(=O)cc(Nc2cc(C(=O)NC3CC3)ccc2Cl)c2cnn(-c3cc(F)ccc3F)c21 : 1.2
Cc1ccc(C(=O)NC2CC2)cc1Nc1cc(=O)n(C)c2c1cnn2-c1c(F)cccc1F : 1.2
CCn1c(=O)cc(Nc2cc(C(=O)NC3CC3)ccc2Cl)c2cnn(-c3ccc(F)cc3F)c21 : 1.5
Cc1ccc(C(=O)NC2CC2)cc1Oc1cc(=O)n(C)c2c1cnn2-c1c(F)cccc1F : 1.3

---

molecular target: Mitogen-activated protein kinase 14 (Homo sapiens); assay: Inhibition of human recombinant p38alpha assessed as phosphorylation of ATF2 by scintillation proximity assay
Sequence (Q16539 whole entry): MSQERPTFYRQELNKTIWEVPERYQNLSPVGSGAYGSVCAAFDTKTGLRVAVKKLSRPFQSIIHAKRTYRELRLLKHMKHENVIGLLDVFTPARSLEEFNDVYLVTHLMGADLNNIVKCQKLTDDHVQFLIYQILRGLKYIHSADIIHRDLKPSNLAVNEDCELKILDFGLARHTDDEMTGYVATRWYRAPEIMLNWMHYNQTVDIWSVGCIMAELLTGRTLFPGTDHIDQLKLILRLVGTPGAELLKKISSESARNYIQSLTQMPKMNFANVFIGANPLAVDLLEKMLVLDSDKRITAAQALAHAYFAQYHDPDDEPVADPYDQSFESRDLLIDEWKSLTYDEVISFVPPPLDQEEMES
pIC50: −log10 of the molar value.
Each item that follows carries a reported pIC50.
MEASURE: pIC50

Cc1ccc(C(=O)NC2CC2)cc1Oc1cc(=O)n(C)c2c1cnn2-c1ccc(F)cc1F : 8.11
CCn1c(=O)cc(Oc2cc(C(=O)NC3CC3)ccc2C)c2cnn(-c3ccc(F)cc3)c21 : 8.40
Cc1ccc(C(=O)NC2CC2)cc1Nc1cc(=O)n(C)c2c1cnn2-c1cccc(F)c1 : 8.48
Cn1c(=O)cc(Nc2cc(C(=O)NC3CC3)ccc2Cl)c2cnn(-c3ccc(F)cc3)c21 : 8.82
Cn1c(=O)cc(Nc2cc(C(=O)NC3CC3)ccc2F)c2cnn(-c3ccc(F)cc3F)c21 : 7.89

---

tested on: Blood; assay: Inhibition of TNF-alpha-stimulated IL8 production in human whole blood incubated for 1 hr before TNFalpha challenge measured after 16 to 18 hrs; type: functional, tissue-based
Quick reference: IC50 of the listed items.
MEASURE: IC50 (nM)

Cc1ccc(C(N)=O)cc1Nc1cc(=O)n(C)c2c1cnn2-c1cc(F)ccc1F : 7.1
Cc1ccc(C(=O)NC2CC2)cc1Nc1cc(=O)n(C)c2c1cnn2-c1cccc(F)c1 : 1.7
Cc1ccncc1Nc1cc(=O)n(C)c2c1cnn2-c1cc(F)ccc1F : 403
Cc1ccc(C(=O)NC2CC2)cc1Nc1cc(=O)n(C)c2c1cnn2-c1c(F)cccc1F : 1.3
CCn1c(=O)cc(Nc2cc(C(=O)NC3CC3)ccc2C)c2cnn(-c3ccc(F)cc3)c21 : 1.9
Cn1c(=O)cc(Nc2cc(C(=O)NC3CC3)ccc2F)c2cnn(-c3ccc(F)cc3F)c21 : 19
Cn1c(=O)cc(Nc2cc(C(=O)NC3CC3)ccc2Cl)c2cnn(-c3c(F)cccc3F)c21 : 1.5
Cc1ccc(C(=O)NC2CC2)cc1Nc1cc(=O)n(C)c2c1cnn2-c1ccc(F)cc1F : 2.4
Cc1ccc(C(=O)NC(C)(C)C)cc1Nc1cc(=O)n(C)c2c1cnn2-c1ccc(F)cc1F : 204
Cc1ccc(C(N)=O)cc1Nc1cc(=O)n(C)c2c1cnn2-c1ccc(F)cc1F : 3.4
Cc1ccc(C(=O)NC2CC2)cc1Oc1cc(=O)n(C)c2c1cnn2-c1cc(F)ccc1F : 16
Cn1c(=O)cc(Nc2cc(C(=O)NC3CC3)ccc2Cl)c2cnn(-c3cc(F)ccc3F)c21 : 1.9
CCn1c(=O)cc(Nc2cc(C(=O)NC3CC3)ccc2Cl)c2cnn(-c3ccc(F)cc3F)c21 : 1.3
CCn1c(=O)cc(Oc2cc(C(=O)NC3CC3)ccc2C)c2cnn(-c3ccc(F)cc3)c21 : 13
Cn1c(=O)cc(Nc2cc(C(=O)NC3CC3)ccc2Cl)c2cnn(-c3ccc(F)cc3F)c21 : 1.1
Cc1ccc(C(=O)NC2CC2)cc1Nc1cc(=O)n(C)c2c1cnn2-c1cc(F)ccc1F : 2.5
Cc1ccc(C(=O)NC2CC2)cc1Oc1cc(=O)n(C)c2c1cnn2-c1ccc(F)cc1F : 16
Cn1c(=O)cc(Nc2cc(C(=O)NC3CC3)ccc2Cl)c2cnn(-c3ccc(F)cc3)c21 : 2.5
CCn1c(=O)cc(Nc2cc(C(=O)NC3CC3)ccc2Cl)c2cnn(-c3ccc(F)cc3)c21 : 0.93
CONC(=O)c1ccc(C)c(Nc2cc(=O)n(C)c3c2cnn3-c2ccc(F)cc2F)c1 : 1.4
Cc1ccc(C(=O)NC2CC2)cc1Oc1cc(=O)n(C)c2c1cnn2-c1cccc(F)c1 : 29
Cn1c(=O)cc(Oc2cc(C(=O)NC3CC3)ccc2Cl)c2cnn(-c3cc(F)ccc3F)c21 : 79
Cc1ccc(C(=O)NC2CC2)cc1Oc1cc(=O)n(C)c2c1cnn2-c1c(F)cccc1F : 2.6
Cn1c(=O)cc(Nc2cc(C(=O)NC3CC3)ccc2F)c2cnn(-c3c(F)cccc3F)c21 : 8.2

---

experiment: Solubility in 0.01N HCl; type: physicochemical
Would you please tag the item y when its solubility is 30 µg/mL or above, and n when it is below?

Cn1c(=O)cc(Nc2cc(C(=O)NC3CC3)ccc2Cl)c2cnn(-c3ccc(F)cc3)c21 : y
Cc1ccc(C(=O)NC2CC2)cc1Oc1cc(=O)n(C)c2c1cnn2-c1ccc(F)cc1F : n
Cn1c(=O)cc(Nc2cc(C(=O)NC3CC3)ccc2Cl)c2cnn(-c3cc(F)ccc3F)c21 : n
Cn1c(=O)cc(Oc2cc(C(=O)NC3CC3)ccc2Cl)c2cnn(-c3cc(F)ccc3F)c21 : n
Cn1c(=O)cc(Nc2cc(C(=O)NC3CC3)ccc2Cl)c2cnn(-c3ccc(F)cc3F)c21 : y

---

assay: Oral bioavailability in Sprague-Dawley rat at 2 mg/kg; type: ADME, organism-based; conditions: in vivo
Some compounds, each annotated with its measured bioavailability.
MEASURE: bioavailability (%)

Cn1c(=O)cc(Nc2cc(C(=O)NC3CC3)ccc2Cl)c2cnn(-c3c(F)cccc3F)c21 : 9
CCn1c(=O)cc(Oc2cc(C(=O)NC3CC3)ccc2C)c2cnn(-c3ccc(F)cc3)c21 : 41
CCn1c(=O)cc(Nc2cc(C(=O)NC3CC3)ccc2Cl)c2cnn(-c3ccc(F)cc3)c21 : 45
Cn1c(=O)cc(Nc2cc(C(=O)NC3CC3)ccc2Cl)c2cnn(-c3cc(F)ccc3F)c21 : 56
Cc1ccc(C(=O)NC2CC2)cc1Nc1cc(=O)n(C)c2c1cnn2-c1c(F)cccc1F : 12
Cn1c(=O)cc(Nc2cc(C(=O)NC3CC3)ccc2Cl)c2cnn(-c3ccc(F)cc3)c21 : 84
Cn1c(=O)cc(Nc2cc(C(=O)NC3CC3)ccc2Cl)c2cnn(-c3ccc(F)cc3F)c21 : 81
CONC(=O)c1ccc(C)c(Nc2cc(=O)n(C)c3c2cnn3-c2ccc(F)cc2F)c1 : 15
Cc1ccc(C(=O)NC2CC2)cc1Oc1cc(=O)n(C)c2c1cnn2-c1c(F)cccc1F : 7
CCn1c(=O)cc(Nc2cc(C(=O)NC3CC3)ccc2Cl)c2cnn(-c3ccc(F)cc3F)c21 : 16

---

Target: Mitogen-activated protein kinase 12 (Homo sapiens, UniProt P53778)
Sequence (P53778 whole entry): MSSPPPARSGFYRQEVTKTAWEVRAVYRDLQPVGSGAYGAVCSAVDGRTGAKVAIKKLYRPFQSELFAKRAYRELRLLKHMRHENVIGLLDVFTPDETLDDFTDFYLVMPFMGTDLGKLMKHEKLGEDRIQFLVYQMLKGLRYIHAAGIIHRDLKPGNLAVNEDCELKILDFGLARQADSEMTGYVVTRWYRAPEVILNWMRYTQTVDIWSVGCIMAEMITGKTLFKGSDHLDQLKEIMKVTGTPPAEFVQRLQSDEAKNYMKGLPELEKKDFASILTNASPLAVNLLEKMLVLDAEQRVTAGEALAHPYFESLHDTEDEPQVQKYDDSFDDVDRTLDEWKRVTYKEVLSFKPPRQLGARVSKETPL
Test: Inhibition of p38-gamma
MEASURE: IC50

Cn1c(=O)cc(Nc2cc(C(=O)NC3CC3)ccc2Cl)c2cnn(-c3ccc(F)cc3)c21 : > 10 µM

---

target: Mitogen-activated protein kinase 14 (Homo sapiens); experiment: Inhibition of human recombinant p38alpha assessed as phosphorylation of ATF2 by scintillation proximity assay
pIC50: −log10 of the molar value.
# pIC50 values compiled below
MEASURE: pIC50

Cc1ccc(C(=O)NC2CC2)cc1Oc1cc(=O)n(C)c2c1cnn2-c1c(F)cccc1F : 8.85
Cc1ccc(C(=O)NC(C)(C)C)cc1Nc1cc(=O)n(C)c2c1cnn2-c1ccc(F)cc1F : 6.57
Cn1c(=O)cc(Nc2cc(C(=O)NC3CC3)ccc2F)c2cnn(-c3c(F)cccc3F)c21 : 8.72
Cn1c(=O)cc(Oc2cc(C(=O)NC3CC3)ccc2Cl)c2cnn(-c3cc(F)ccc3F)c21 : 8.48
Cc1ccncc1Nc1cc(=O)n(C)c2c1cnn2-c1cc(F)ccc1F : 6.35
